target: human recombinant A1 adenosine receptor (Homo sapiens, UniProt P30542); construct: expressed in transfected cells; host or cells: CHO; test: Human cloned A1 receptor binding, [3H]-DPCPX, CHO cells; conditions: hydrochloride, read-out: hA1 (Ki)
Sequence (P30542 whole entry): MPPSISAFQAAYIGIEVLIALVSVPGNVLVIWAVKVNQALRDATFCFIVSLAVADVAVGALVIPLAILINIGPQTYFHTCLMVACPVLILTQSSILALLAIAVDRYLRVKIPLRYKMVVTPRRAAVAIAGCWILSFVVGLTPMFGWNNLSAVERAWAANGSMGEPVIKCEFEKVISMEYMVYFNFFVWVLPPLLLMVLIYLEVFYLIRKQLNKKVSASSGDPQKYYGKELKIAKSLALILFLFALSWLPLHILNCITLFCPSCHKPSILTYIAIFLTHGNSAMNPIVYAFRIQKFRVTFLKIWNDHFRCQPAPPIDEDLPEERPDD
measurement-name: pKi
Numbers only, as −log10 of the molar value.

Query: pKi; subject: Cl.Cn1cc2c(nc(NC(=O)Nc3ccncc3)n3nc(-c4ccco4)nc23)n1 [Compound 107, hydrochloride]
6.46

###

Assignment: determine reported Ki for the given molecules.
target: human recombinant A2B adenosine receptors (Homo sapiens, UniProt P29275); construct: host or cells: HEK-293; test: Human cloned A2B receptor binding, [3H]-DPCPX, HEK-293 cells; conditions: read-out: hA2B (Ki)
Sequence (P29275 whole entry): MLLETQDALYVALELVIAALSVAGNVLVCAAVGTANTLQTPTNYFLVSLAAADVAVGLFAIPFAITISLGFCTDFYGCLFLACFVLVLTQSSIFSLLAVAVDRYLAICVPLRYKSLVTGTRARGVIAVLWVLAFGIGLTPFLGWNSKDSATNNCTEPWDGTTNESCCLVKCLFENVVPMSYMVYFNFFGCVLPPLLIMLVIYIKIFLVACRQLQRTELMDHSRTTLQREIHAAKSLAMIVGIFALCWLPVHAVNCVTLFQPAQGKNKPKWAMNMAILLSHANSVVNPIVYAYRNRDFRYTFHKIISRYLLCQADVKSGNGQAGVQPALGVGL
Where a name gives a salt, the structure may show the parent alone.
Give bare numbers, in nM.

Please report Ki for every entry that follows.
1. CCN(CC)c1ccc(NC(=O)Nc2nc3nn(C)cc3c3nc(-c4ccco4)nn23)cc1 [Compound 102, hydrochloride]
2. CN(C)c1ccc(NC(=O)Nc2nc3nn(C)cc3c3nc(-c4ccco4)nn23)cc1 [Compound 103, hydrochloride]
3. CCN(CC)c1ccc(NC(=O)Nc2nc3nn(C)cc3c3nc(-c4ccco4)nn23)cc1 [Compound 101]
4. Cn1cc2c(nc(NC(=O)Nc3ccncc3)n3nc(-c4ccco4)nc23)n1

1. 276
2. 609
3. 350
4. 200

###

target: human recombinant A3 adenosine receptor (Homo sapiens, UniProt P0DMS8); assay: Human cloned A3 adenosine receptor binding assay, [125I]AB-MECA, HEK-293 membranes; parameters: USA; host or cells: HEK-293; conditions: selectivity ratio of Ki values
Sequence (P0DMS8 whole entry): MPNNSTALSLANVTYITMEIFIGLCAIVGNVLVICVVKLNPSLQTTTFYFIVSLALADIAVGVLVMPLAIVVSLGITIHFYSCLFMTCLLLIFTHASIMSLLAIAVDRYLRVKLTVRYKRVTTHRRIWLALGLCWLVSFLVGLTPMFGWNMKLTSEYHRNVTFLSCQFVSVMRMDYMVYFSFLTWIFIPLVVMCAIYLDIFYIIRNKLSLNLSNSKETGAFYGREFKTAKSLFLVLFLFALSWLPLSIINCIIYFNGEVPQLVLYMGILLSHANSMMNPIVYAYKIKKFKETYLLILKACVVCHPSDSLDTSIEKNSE
measurement-name: rA2A/hA3
Give bare numbers.

[[record]]
smiles_input = "COc1ccc(NC(=O)Nc2nc3nn(CCc4ccccc4)cc3c3nc(-c4ccco4)nn23)cc1"
experimental_target = "human recombinant A3 adenosine receptor (Homo sapiens, UniProt P0DMS8)"
measurement_name = "rA2A/hA3"
numeric_readout = 951


Please report rA2A/hA3 for every entry that follows.
1. O=C(Nc1cccc(Cl)c1)Nc1nc2nn(CCc3ccccc3)cc2c2nc(-c3ccco3)nn12
2. O=C(Cc1ccccc1)Nc1nc2nn(CCCc3ccccc3)cc2c2nc(-c3ccco3)nn12

1. 128
2. 3.3

###

target: human recombinant A3 adenosine receptor (Homo sapiens, UniProt P0DMS8); assay: Human cloned A3 adenosine receptor binding assay, [125I]AB-MECA, HEK-293 membranes; design: USA; host or cells: HEK-293; conditions: HEK-293 membranes, [125I]AB-MECA; read-out: hA3 (Ki)
API: label(entry) gives Satisfied if the entry's Ki is strictly smaller than 2 nM; on equality or larger values it gives Not satisfied.

These recorded examples may help you get a feel for the data.
[[record]]
smiles_input = "CCCCn1cc2c(nc(NC(=O)Nc3cccc(Cl)c3)n3nc(-c4ccco4)nc23)n1"
cat = "Satisfied"

[[record]]
smiles_input = "CCCCn1cc2c(nc(N)n3nc(-c4ccco4)nc23)n1"
cat = "Not satisfied"

[[record]]
smiles_input = "CC(C)=CCn1cc2c(nc(NC(=O)Nc3cccc(Cl)c3)n3nc(-c4ccco4)nc23)n1"
cat = "Not satisfied"

[[record]]
smiles_input = "COc1ccc(NC(=O)Nc2nc3nn(C)cc3c3nc(-c4ccco4)nn23)cc1"
cat = "Satisfied"

[[record]]
smiles_input = "Cn1cc2c(nc(N)n3nc(-c4ccco4)nc23)n1"
cat = "Not satisfied"

[[record]]
smiles_input = "O=C(Cc1ccccc1)Nc1nc2nn(CCCc3ccccc3)cc2c2nc(-c3ccco3)nn12"
cat = "Not satisfied"


Check if Ki falls below 2 nM for Cn1cc2c(nc(NC(=O)Nc3cccc(Cl)c3)n3nc(-c4ccco4)nc23)n1 .
Satisfied

Check if Ki falls below 2 nM for CC(C)CCn1cc2c(nc(NC(=O)Cc3ccccc3)n3nc(-c4ccco4)nc23)n1 .
Not satisfied

Check if Ki falls below 2 nM for CC(C)=CCn1cc2c(nc(N)n3nc(-c4ccco4)nc23)n1 .
Not satisfied

Check if Ki falls below 2 nM for CC(C)CCn1cc2c(nc(N)n3nc(-c4ccco4)nc23)n1 .
Not satisfied

Check if Ki falls below 2 nM for CCn1cc2c(nc(NC(=O)Nc3cccc(Cl)c3)n3nc(-c4ccco4)nc23)n1 .
Not satisfied

Check if Ki falls below 2 nM for Nc1nc2nn(CCc3ccccc3)cc2c2nc(-c3ccco3)nn12 .
Not satisfied

Check if Ki falls below 2 nM for CCCn1cc2c(nc(N)n3nc(-c4ccco4)nc23)n1 .
Not satisfied

Check if Ki falls below 2 nM for COc1ccc(NC(=O)Nc2nc3nn(CCc4ccccc4)cc3c3nc(-c4ccco4)nn23)cc1 .
Satisfied

Check if Ki falls below 2 nM for COc1ccc(NC(=O)Nc2nc3nn(CCC(C)C)cc3c3nc(-c4ccco4)nn23)cc1 .
Not satisfied

Check if Ki falls below 2 nM for CC(C)CCn1cc2c(nc(NC(=O)Nc3cccc(Cl)c3)n3nc(-c4ccco4)nc23)n1 .
Not satisfied

Check if Ki falls below 2 nM for CCn1cc2c(nc(N)n3nc(-c4ccco4)nc23)n1 .
Not satisfied

Value source: patent US7271171B2
